Reference for the values: patent US20140112930A1

Would you kindly list T1/2 for each of these binders?
target: T1, human bow-Ang-2 tetrameric construct (hBA2) (human); experiment: SPR, captured Ab
T1 construct: also called human BA2; hBA2-hIgG1
T1 sequence (chain, as listed by the source limits assumed): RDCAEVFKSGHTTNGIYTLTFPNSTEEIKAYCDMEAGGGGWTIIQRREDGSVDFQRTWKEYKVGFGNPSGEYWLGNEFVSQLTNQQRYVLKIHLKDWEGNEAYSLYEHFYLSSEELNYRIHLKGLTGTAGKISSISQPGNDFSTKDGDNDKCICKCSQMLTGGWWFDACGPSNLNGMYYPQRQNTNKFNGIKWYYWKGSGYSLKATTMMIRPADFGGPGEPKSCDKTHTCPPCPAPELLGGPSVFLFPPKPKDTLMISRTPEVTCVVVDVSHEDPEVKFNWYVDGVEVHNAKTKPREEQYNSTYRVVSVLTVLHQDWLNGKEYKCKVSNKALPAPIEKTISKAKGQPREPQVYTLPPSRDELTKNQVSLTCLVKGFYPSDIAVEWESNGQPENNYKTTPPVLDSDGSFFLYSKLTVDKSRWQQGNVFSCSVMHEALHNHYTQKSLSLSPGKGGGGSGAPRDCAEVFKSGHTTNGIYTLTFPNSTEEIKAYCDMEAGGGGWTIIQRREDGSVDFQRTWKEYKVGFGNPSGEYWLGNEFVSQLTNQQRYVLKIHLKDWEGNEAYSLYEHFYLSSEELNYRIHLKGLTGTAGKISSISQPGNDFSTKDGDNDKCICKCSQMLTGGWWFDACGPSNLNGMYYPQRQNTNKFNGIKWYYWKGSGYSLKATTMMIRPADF
Quick note: give the figure in min, leave out the unit.

# lookup: T1/2 of H1H706P (antibody, V domains shown) VH: QVQLVESGGGVVQPGRSLRLSCAASGFTFSSYGMHWVRQAPDKGLEWVAVKWDDGSNKYYADSVKGRFTISRDNSKNTLYLQMNSLRAEDTAVYYCAREGPYDFYSGYGAFDIWGQGTMVTVSS VL: DIQMTQSPSSLSASVGDRVTITCRASQGISNYLAWFQQKPGKAPKSLIYAASSLQSGVPSKFSGSGSGTDFTLTISSLQPEDFATYYCQQYNSYPRTFGQGTKVEIK
63.9

# lookup: T1/2 of H1H693P (antibody, V domains shown) VH: EVQLVESGGGLVQPGESLRLSCAASGFTFSSYAMSWVRQGPGKGLEWVSSISGSGGTTYYADSVEGRFTISRDNSKNTLYLHMNSLRAEDTAVYYCAKDFLDYSTYLAFDLWGQGTMVTVSS VL: DIQMTQSPSSVSASVGDRVTITCRASQGISSWLAWYQQKPGKAPKLLIYAASSLQSGVPSRFSGSGSGTDFTLTISSLQPEDFATYYCQQANSFPRTFGQGTKVEIK
28.7
